- assay_overview: Time dependent organ distribution of CPT after intramuscular administration
- Format: in vivo
- applied_conditions: mouse, site of injection, 7 µg/mouse, Site of inj., 1200 min, mice, i.m. CPT in DMSO/saline suspension, read-out: CPT in tissue
parameter_measured: concentration at 1200 min (ng/g)
Give the value in ng/g but do not write ng/g after it.

Requested read-out: concentration at 1200 min. Entry: CC[C@@]1(O)C(=O)OCc2c1cc1n(c2=O)Cc2cc3ccccc3nc2-1 1540

====

- assay_overview: Time dependent organ distribution of CPT after intranasal administration of DLPC liposomes
- Assay type: in vivo
- applied_conditions: other: intranasal instillation; Lung, 30 min; mice, intranasal DLPC liposomal CPT 7 μg per mouse; read-out: CPT in tissue
- Experimental: The mobile phase was 30% acetonitrile and 70% of 0.1% glacial acetic acid. CPT was detected using the Waters 470 scanning fluorescence detector set to an excitation wavelength of 370 nm and an emission wavelength of 440 nm. […] The data were analyzed with the Waters Millenium software. […] CPT was administered in liposomal formulation prepared with DLPC with initial drug concentration 0.2 mg/ml. 35 μL of suspension was installed to each animal (group of 3 animals was treated for each time point).
parameter_measured: concentration at 30 min
Number first, unit second.

Requested read-out: concentration at 30 min. Entry: CC[C@@]1(O)C(=O)OCc2c1cc1n(c2=O)Cc2cc3ccccc3nc2-1 [CPT, 20-S-camptothecin] 36 ng/g

====

- assay_overview: Time dependent organ distribution of CPT after intramuscular administration
- Type: in vivo
- applied_conditions: mouse, whole blood, 7 μg per mouse, Blood, 0 min, mice, i.m. CPT in DMSO/saline suspension, read-out: CPT in tissue
- Experimental: The mobile phase was 30% acetonitrile and 70% of 0.1% glacial acetic acid. CPT was detected using the Waters 470 scanning fluorescence detector set to an excitation wavelength of 370 nm and an emission wavelength of 440 nm. […] The data were analyzed with the Waters Millenium software. Drug disappeared very slowly from the site of intramuscular injection in the first 12 hours, with only very small concentrations detected in the liver and virtually no drug present at other sites. […]
parameter_measured: concentration at 0 min (ng/g)
Give the value in ng/g but do not write ng/g after it.

Requested read-out: concentration at 0 min. Entry: CC[C@@]1(O)C(=O)OCc2c1cc1n(c2=O)Cc2cc3ccccc3nc2-1 [CPT, 20-S-camptothecin] 2

====

- assay_overview: Time dependent organ distribution of CPT after intramuscular administration
- Assay type: in vivo
- applied_conditions: mouse, site of injection, 7 µg/mouse, Site of inj., 60 min, mice, i.m. CPT in DMSO/saline suspension, read-out: CPT in tissue
parameter_measured: concentration at 60 min (ng/g)
Give the value in ng/g but do not write ng/g after it.

Requested read-out: concentration at 60 min. Entry: CC[C@@]1(O)C(=O)OCc2c1cc1n(c2=O)Cc2cc3ccccc3nc2-1 [CPT, 20-S-camptothecin] 4610

====

- assay_overview: Time dependent organ distribution of CPT after intranasal administration of DLPC liposomes
- Assay type: in vivo
- applied_conditions: other: intranasal instillation; Lung, 0 min; mice, intranasal DLPC liposomal CPT 7 μg per mouse; read-out: CPT in tissue
parameter_measured: concentration at 0 min (ng/g)
Give the value in ng/g but do not write ng/g after it.

Requested read-out: concentration at 0 min. Entry: CC[C@@]1(O)C(=O)OCc2c1cc1n(c2=O)Cc2cc3ccccc3nc2-1 1290

====

- assay_overview: Time dependent organ distribution of CPT after intramuscular administration
- Assay type: in vivo
- applied_conditions: mouse, whole blood, 7 μg per mouse, Blood, 30 min, mice, i.m. CPT in DMSO/saline suspension, read-out: CPT in tissue
parameter_measured: concentration at 30 min (ng/g)
Give the value in ng/g but do not write ng/g after it.

Requested read-out: concentration at 30 min. Entry: CC[C@@]1(O)C(=O)OCc2c1cc1n(c2=O)Cc2cc3ccccc3nc2-1 [CPT, 20-S-camptothecin] 12

====

- assay_overview: Time dependent organ distribution of CPT after intramuscular administration
- Format: in vivo
- applied_conditions: mouse, 7 µg/mouse, Lung, 0 min, mice, i.m. CPT in DMSO/saline suspension, read-out: CPT in tissue
parameter_measured: concentration at 0 min
Number first, unit second.

Requested read-out: concentration at 0 min. Entry: CC[C@@]1(O)C(=O)OCc2c1cc1n(c2=O)Cc2cc3ccccc3nc2-1 2 ng/g

====

- assay_overview: Tissue distribution of CPT after inhalation of CPT liposome aerosol
- Type: in vivo, Mouse
- applied_conditions: mouse, in vivo, 486 ng per mouse, Lung; mice, after 15 minutes inhalation of CPT liposome aerosol; 4 animals; read-out: MEAN (±SD) CPT in tissue
- Protocol: The final suspension was clear. If precipitation occurred, it was reheated to 50-60° C. The preparation was frozen in liquid nitrogen and lyophilized overnight. […] The mobile phase was 30% acetonitrile and 70% of 0.1% glacial acetic acid. CPT was detected using the Waters 470 scanning fluorescence detector set to an excitation wavelength of 370 nm and an emission wavelength of 440 nm. […] The data were analyzed with the Waters Millenium software. The deposited dose was calculated to be 486 ng per mouse. […]
parameter_measured: concentration at 15 min

Requested read-out: concentration at 15 min. Entry: CC[C@@]1(O)C(=O)OCc2c1cc1n(c2=O)Cc2cc3ccccc3nc2-1 [CPT, 20-S-camptothecin] 51.1 ng/g

====

- assay_overview: Time dependent organ distribution of CPT after intranasal administration of DLPC liposomes
- Type: in vivo
- applied_conditions: other: intranasal instillation; Kidney, 0 min; mice, intranasal DLPC liposomal CPT 7 μg per mouse; read-out: CPT in tissue
parameter_measured: concentration at 0 min (ng/g)
Give the value in ng/g but do not write ng/g after it.

Requested read-out: concentration at 0 min. Entry: CC[C@@]1(O)C(=O)OCc2c1cc1n(c2=O)Cc2cc3ccccc3nc2-1 [CPT, 20-S-camptothecin] 542

====

- assay_overview: Time dependent organ distribution of CPT after intramuscular administration
- Format: in vivo
- applied_conditions: mouse, 7 µg/mouse, Liver, 1200 min, mice, i.m. CPT in DMSO/saline suspension, read-out: CPT in tissue
parameter_measured: concentration at 1200 min (ng/g)
Give the value in ng/g but do not write ng/g after it.

Requested read-out: concentration at 1200 min. Entry: CC[C@@]1(O)C(=O)OCc2c1cc1n(c2=O)Cc2cc3ccccc3nc2-1 126

====

- assay_overview: Time dependent organ distribution of CPT after intramuscular administration
- Assay type: in vivo
- applied_conditions: mouse, 7 µg/mouse, Blood, 1200 min, mice, i.m. CPT in DMSO/saline suspension, read-out: CPT in tissue
parameter_measured: concentration at 1200 min (ng/g)
Give the value in ng/g but do not write ng/g after it.

Requested read-out: concentration at 1200 min. Entry: CC[C@@]1(O)C(=O)OCc2c1cc1n(c2=O)Cc2cc3ccccc3nc2-1 [CPT, 20-S-camptothecin] 4

====

- assay_overview: Time dependent organ distribution of CPT after intramuscular administration
- Assay type: in vivo
- applied_conditions: mouse, 7 μg per mouse, Spleen, 60 min, mice, i.m. CPT in DMSO/saline suspension, read-out: CPT in tissue
parameter_measured: concentration at 60 min
Number first, unit second.

Requested read-out: concentration at 60 min. Entry: CC[C@@]1(O)C(=O)OCc2c1cc1n(c2=O)Cc2cc3ccccc3nc2-1 [CPT, 20-S-camptothecin] 11 ng/g

====

- assay_overview: Time dependent organ distribution of CPT after intramuscular administration
- Assay type: in vivo
- applied_conditions: mouse, 7 μg per mouse, Spleen, 1200 min, mice, i.m. CPT in DMSO/saline suspension, read-out: CPT in tissue
parameter_measured: concentration at 1200 min (ng/g)
Give the value in ng/g but do not write ng/g after it.

Requested read-out: concentration at 1200 min. Entry: CC[C@@]1(O)C(=O)OCc2c1cc1n(c2=O)Cc2cc3ccccc3nc2-1 [CPT, 20-S-camptothecin] 5

====

- assay_overview: Time dependent organ distribution of CPT after intramuscular administration
- Assay type: in vivo
- applied_conditions: mouse, 7 µg/mouse, Blood, 60 min, mice, i.m. CPT in DMSO/saline suspension, read-out: CPT in tissue
parameter_measured: concentration at 60 min (ng/g)
Give the value in ng/g but do not write ng/g after it.

Requested read-out: concentration at 60 min. Entry: CC[C@@]1(O)C(=O)OCc2c1cc1n(c2=O)Cc2cc3ccccc3nc2-1 8

====

- assay_overview: Tissue distribution of CPT after inhalation of CPT liposome aerosol
- Assay type: in vivo, Mouse
- applied_conditions: mouse, in vivo, 486 ng per mouse, Liver; mice, after 15 minutes inhalation of CPT liposome aerosol; 4 animals; read-out: MEAN (±SD) CPT in tissue
parameter_measured: concentration at 15 min (ng/g)
Give the value in ng/g but do not write ng/g after it.

Requested read-out: concentration at 15 min. Entry: CC[C@@]1(O)C(=O)OCc2c1cc1n(c2=O)Cc2cc3ccccc3nc2-1 72.1
